Data origin, for the record: patent EP0942896B1

Hi there, I'd appreciate the recorded ALT for every entry that follows.
System: Male Sprague-Dawley Rats
assay.method.text: Serum clinical chemistries in rats fed compound as dietary admixture
Type: in vivo
assay.conditions: % of control; alanine aminotransferase in rat serum; diet 0.3%, 4 days; N = 5
Give your result in % as a bare value.

[in] Query: ALT; subject: CC(C)=CCC[C@@H](C)CCOc1cc(C(C)(C)C)c(O)c(C(C)(C)C)c1
[out] 108

[in] Query: ALT; subject: CC(C)CCCC(C)CCOc1ccc(O)c(C(C)(C)C)c1 (stereo not shown)
[out] 149

[in] Query: ALT; subject: CC(C)=CCC[C@H](C)CCOc1ccc(O)c(C(C)(C)C)c1 (stereo in doubt)
[out] 119

[in] Query: ALT; subject: CC(C)CCCC(C)CCOc1cc(C(C)(C)C)c(O)c(C(C)(C)C)c1 (stereo not shown)
[out] 114

[in] Query: ALT; subject: CC(C)=CCCC(C)CCOc1ccc(O)c(C(C)(C)C)c1 (stereo not shown)
[out] 122

[in] Query: ALT; subject: CC(CCCC(C)(C)O)CCSc1cc(C(C)(C)C)c(O)c(C(C)(C)C)c1 (stereo not shown)
[out] 129

[in] Query: ALT; subject: CC(C)=CCC[C@H](C)CCOc1cc(C(C)(C)C)c(O)cc1C(C)(C)C
[out] 116

[in] Query: ALT; subject: CC(C)=CCCC(C)CCSc1cc(C(C)(C)C)c(O)c(C(C)(C)C)c1 (stereo not shown)
[out] 117

[in] Query: ALT; subject: CC(C)=CCC[C@H](C)CCOc1cc(C(C)(C)C)c(O)c(C(C)(C)C)c1
[out] 132

[in] Query: ALT; subject: CC(C)=CCC[C@H](C)CCSc1ccc(O)c(C(C)(C)C)c1
[out] 120

###

Hi there, I'd appreciate the recorded AST for every entry that follows.
Test system: Male Sprague-Dawley Rats
assay.method.text: Serum clinical chemistries in rats fed compound as dietary admixture
Assay type: in vivo
assay.conditions: % of control; aspartate aminotransferase in rat serum; diet 0.3%, 4 days; N = 5
Give your result in % as a bare value.

[in] Query: AST; subject: CC(C)=CCC[C@H](C)CCOc1ccc(O)c(C(C)(C)C)c1 (stereo in doubt) [MDL 103,649]
[out] 82

[in] Query: AST; subject: CC(CCCC(C)(C)O)CCSc1cc(C(C)(C)C)c(O)c(C(C)(C)C)c1 (stereo not shown) [MDL 104,487]
[out] 124

[in] Query: AST; subject: CC(C)=CCCC(C)CCSc1cc(C(C)(C)C)c(O)c(C(C)(C)C)c1 (stereo not shown) [MDL 103,960]
[out] 102

[in] Query: AST; subject: CC(C)=CCC[C@@H](C)CCOc1cc(C(C)(C)C)c(O)c(C(C)(C)C)c1 [MDL 104,535]
[out] 94

[in] Query: AST; subject: CC(C)CCCC(C)CCOc1ccc(O)c(C(C)(C)C)c1 (stereo not shown) [MDL 104,191]
[out] 146

[in] Query: AST; subject: CC(C)CCCC(C)CCOc1cc(C(C)(C)C)c(O)c(C(C)(C)C)c1 (stereo not shown) [MDL 104,102]
[out] 82

[in] Query: AST; subject: CC(C)=CCC[C@H](C)CCOc1cc(C(C)(C)C)c(O)cc1C(C)(C)C [MDL 107,059]
[out] 140

[in] Query: AST; subject: CC(C)=CCC[C@H](C)CCOc1cc(C(C)(C)C)c(O)c(C(C)(C)C)c1 [MDL 103,294]
[out] 88

[in] Query: AST; subject: CC(C)=CCCC(C)CCOc1ccc(O)c(C(C)(C)C)c1 (stereo not shown) [MDL 105,411]
[out] 87

[in] Query: AST; subject: CC(C)=CCC[C@H](C)CCSc1ccc(O)c(C(C)(C)C)c1 [MDL 103,714]
[out] 104
